- experimental target: human Fc (human)
- protocol text: ELISA; negative control
Threshold-based label: optical density under 0.3 OD gives Y, optical density not under 0.3 OD gives N.

370_F08 (antibody, V domains shown) VH: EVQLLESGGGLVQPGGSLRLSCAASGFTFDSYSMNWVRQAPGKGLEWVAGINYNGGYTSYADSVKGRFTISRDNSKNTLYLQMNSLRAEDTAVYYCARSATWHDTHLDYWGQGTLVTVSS VL: DIQMTQSPSSLSASVGDRVTITCRASQSIISYVNWYQQKPGKAPKLLIYAATSRHSGVPSRFSGSGSGTDFTLTISSLQPEDFATYYCQQSYNLPLTFGGGTKVEIK    N
374_H04 (antibody, V domains shown) VH: EVQLLESGGGLVQPGGSLRLSCAASGFTFDSYSMNWVRQAPGKGLEWVSGINYNSGYTSYADSVKGRFTISRDNSKNTLYLQMNSLRAEDTAVYYCARSANWHDTALDYWGQGTLVTVSS VL: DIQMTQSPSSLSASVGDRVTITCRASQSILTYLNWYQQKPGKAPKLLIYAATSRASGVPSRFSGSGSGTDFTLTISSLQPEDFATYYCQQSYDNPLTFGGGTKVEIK    Y
369_C10 (antibody, V domains shown) VH: EVQLLESGGGLVQPGGSLRLSCAASGFTFSSYSMNWVRQAPGKGLEWVANINYNGGYTSYADSVKGRFTISRDNSKNTLYLQMNSLRAEDTAVYYCARSATWHDTALDYWGQGTLVTVSS VL: DIQMTQSPSSLSASVGDRVTITCRASQSIVTYLNWYQQKPGKAPKLLIYAATSLHSGVPSRFSGSGSGTDFTLTISSLQPEDFATYYCQQSDSLPLTFGGGTKVEIK    N

Query block: optical density strictly < 0.3 OD for this binder? 373_H10 (antibody, V domains shown) VH: EVQLLESGGGLVQPGGSLRLSCAASGFTFSSYSMNWVRQAPGKGLEWVAGINYNGGYTGYADSVKGRFTISRDNSKNTLYLQMNSLRAEDTAVYYCARSATWHDTHLDYWGQGTLVTVSS VL: DIQMTQSPSSLSASVGDRVTITCRASQSILSYVNWYQQKPGKAPKLLIYAATSRASGVPSRFSGSGSGTDFTLTISSLQPEDFATYYCQQSYSLPLTFGGGTKVEIK
Result block: Y

Query block: optical density strictly < 0.3 OD for this binder? 376_A04 (antibody, V domains shown) VH: EVQLLESGGGLVQPGGSLRLSCAASGFTFDSYSMNWVRQAPGKGLEWVSNINYNGGYTSYADSVKGRFTISRDNSKNTLYLQMNSLRAEDTAVYYCARSANWHDTALDYWGQGTLVTVSS VL: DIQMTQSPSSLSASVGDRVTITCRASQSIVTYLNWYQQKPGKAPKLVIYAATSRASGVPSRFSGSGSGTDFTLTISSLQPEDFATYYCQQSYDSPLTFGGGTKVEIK
Result block: Y
